Tested on: UACC-257 melanoma
Test: NCI-60 one-dose screen, 48 h
Details: 10 µM unless noted
About 83,000 compounds went through this panel and 20% of them were active in at least one assay; those are over-represented in the sample as a whole. Calls of active or inactive are those of the source. How the source made its calls: active means growth percent below 10; inactive means the rest.
Outcome codes: active, inactive

• O=C(Cc1ccc(F)c(F)c1)Nc1cc(C2(C(F)(F)F)CC2)nn1Cc1ccccc1 = active
• CC/C=C\C[C@H](O)C/C=C1/C(=O)C=C[C@@H]1C/C=C\CCCCO = inactive
• CNc1ccc(NC)c2c1C(=O)c1ccccc1C2=O = inactive
• O=C(NCCCNc1cc(-c2cn(-c3ccccc3)nc2-c2cccc(O)c2)ccn1)c1ccc(F)cc1 = active
• CN(C)c1ccc(-c2ccc3[nH]c(=O)nc(-c4ccccc4)c3c2)cn1 = inactive
• NS(=O)(=O)c1cnccc1Oc1cccc2cccnc12 = inactive
• COCN1CCC2N(COC)CCC3N(COC)CCC1N23 (stereo unspecified) = inactive
• Cc1cc(=O)[nH]c(N=Nc2c(O)[nH]c3ccccc23)n1 = inactive
• CCCCCCCCCCCCCCCCCC1=NCCN1CCOC1=C(Cl)C(=O)c2ccccc2C1=O = inactive
• Cc1ccc2c(c1)Sc1c(ccc3ccccc13)N2 = inactive
• Cc1ccc(Cl)c(NS(=O)(=O)c2ccc(-c3cnc(C4CC4)o3)cc2)c1 = inactive
• COc1cc(/C=C2\C(=O)ON=C2C)cc(OC)c1OC = inactive
• Cc1cc(/C=C\c2ccc3ccccc3[n+]2C)c(O)c2ncccc12 = inactive
• O=C1Nc2ccccc2/C1=C/c1cn(C(=O)c2ccc(Cl)cc2)c2ccccc12 = inactive
• CC1(C)CC(=O)C2=C(C1)N(c1ccc(OC(F)(F)F)cc1)C(N)=C(C#N)C2c1ccc(Cl)cc1 (stereo unspecified) = inactive
• NC(=N\N=C/c1ccccc1[N+](=O)[O-])/C(N)=N\N=C/c1ccccc1[N+](=O)[O-] = inactive
• CC/C=C1/C(=O)C=C[C@@H]1C/C=C\CCCC(=O)O = inactive
• Cc1ccc(S(=O)(=O)Oc2cc(OS(=O)(=O)c3ccc(C)cc3)cc(OS(=O)(=O)c3ccc(C)cc3)c2)cc1 = inactive
• COc1ccc(C2CC(c3cccc(OC)c3)=NN2C(=O)c2cc(OC)c(OC)c(OC)c2)cc1 (stereo unspecified) = inactive
• NC[C@H](O)c1ccc(O)c(O)c1 = inactive
• Cc1cc(NCc2cc(Nc3ccnc4cc(Cl)ccc34)ccc2F)nc(Cl)n1 = inactive

###

System: SNB-75 CNS
Assay: NCI-60 one-dose screen, 48 h (100 = growth as untreated, 0 = no growth, -100 = all killed)
Details: 10 µM unless noted
Procedure: Growth inhibition of the SNB-75 human tumor cell line is measured as a screen for anti-cancer activity. Cells are grown in 96 well plates and exposed to the test compound for 48 hours. Compounds are tested at a single concentration, which is 10^-5 M for most compounds. The reported endpoint is percent growth (GI% or GIPRCNT), where numbers from 0 - 100% represent growth inhibition, and numbers from -100% - 0 represent cell death. For example, a value of 40 represents 60% growth inhibition. […]
Compounds without any hit were thinned out: in the full panel of roughly 83,000, 20% have a hit.
quantity: growth (%)

* O=S(=O)(Nc1cccc(Cl)c1)c1ccc(-c2cnc(C3CC3)o2)cc1 | -25.8
* O=C(COc1ccc(/C=C2\Oc3ccccc3C2=O)cc1)Nc1nc2c(s1)CCCC2 | -76.6
* CC(C)CC(NC(=O)CN(Cc1ccccc1)S(C)(=O)=O)C(=O)O (centres undefined) | 80
* O=c1[nH][n+](-c2ccc(Cl)cc2)no1 | 74.4
* COc1ccc(-c2[nH]c(=S)n(C(CC3(C)NCC(=O)N3n3c(-c4ccccc4)cc(C)nc3=S)c3ccc(OC)cc3)c(=O)c2Br)cc1 (centres undefined) | 3.88
* Cc1ccc(C2SCC(=O)N2Cc2ccccc2)cc1 (centres undefined) | 95.1
* Cc1cc(NCc2cc(Nc3ccnc4cc(Cl)ccc34)ccc2F)nc(N2CCN(c3ccccc3)CC2)n1 | 57.7
* COc1cccc(-c2nn(-c3ccccc3)cc2-c2ccnc(NCCNC(=O)Nc3ccccc3)c2)c1 | 67.7
* Nc1nc(N)c2c(n1)NC(c1ccccc1)C1CCc3ccccc3C1=N2 (centres undefined) | 54.7
* N#CC1=C(/N=C/c2ccccc2)Oc2c(ccc3ccccc23)C1c1ccccc1 (centres undefined) | 10.1
* O=C(c1ccccc1)N1N=C(c2ccccc2)CC1c1nnc2n(Cc3ccccc3)c(=O)c3c4c(sc3n12)CCCC4 (centres undefined) | 108
* COc1cccc(-c2nn(-c3ccccc3)cc2-c2ccnc(NCCCNC(=O)c3ccccc3)c2)c1 | 60.1
* Cc1ccc(N2CCN(C(=S)c3cccs3)CC2)cc1 | 94.3
* COc1cc2c(cc1-c1c(C)noc1C)ncc1nc(C3CCC(F)(F)CC3)n(C3CCC(OC(F)F)CC3)c12 (centres undefined) | 15.1
* COc1ccc(-c2ccc3c(c2)sc2nc(-c4ccc(F)cc4)cn23)cc1 | 98.9
* CCOC(=O)c1csc(NC(=O)COc2cccc(/C=C3\Oc4cc(OC)ccc4C3=O)c2)n1 | 78.4
* COc1cccc(C(=O)NCCCNc2cc(-c3cn(-c4ccccc4)nc3-c3cccc(OC)c3)ccn2)c1 | 63.5
* Cc1nn(-c2ccccc2)c(Oc2ccc(Cl)cc2)c1/C=N\N=c1/sc2ccccc2n1C | 74.4
* O=C(CCCCCCN1CC(=O)N2[C@@H](c3ccccc3Cl)c3[nH]c4ccccc4c3C[C@H]2C1=O)NO | -1.06

###

Tested on: MDA-MB-231 breast
Test: NCI-60 one-dose screen, 48 h (100 = growth as untreated, 0 = no growth, -100 = all killed)
Conditions: 10 µM unless noted
This is part of a sample that, as a whole, favours compounds with a hit. Of some 83,000 tested, about 20% had one in any assay.
quantity: growth (%)

* CCCCCCN(CCCCCC)c1ccc(/C=C2/SC(=O)N(c3nc(N4CCCC4)nc(N4CCCC4)n3)C2=O)c(C)c1 | 85.7
* C=CCn1c(C)nc2cc(Nc3nc(Cl)nc4ccccc34)ccc21 | 89.9
* O=C(CC(SCc1ccccc1)c1ccccc1)c1ccccc1 (configuration not stated) | 98.1
* CN(C)CCNc1nc2ccccc2c2c1c1c(n2Cc2ccccc2)-c2ccccc2C1=O | -79.8
* COc1ccc2c(c1)O/C(=C\c1cccc(OCC(=O)Nc3nc(C)c(C)s3)c1)C2=O | 21.2
* O=C1CCC2=C3C4CCCCC4C(=O)C4CCCC(OC2C1)C34 (configuration not stated) | 28
* Oc1c(CN2CCCC2)cc(COCc2ccc(Br)cc2)c2cccnc12 | 5.06
* CC1CC2Oc3ccc(Cl)cc3C(=O)N2O1 (configuration not stated) | 102
* O=Cc1c[nH]c2ccc(-c3csc4ccccc34)cc12 | 45.7
* Cc1c(Cl)cc(-n2c(=O)c3ccccc3c3ccccc3c2=O)cc1Cl | 84.2
* Cc1ccc(Nc2nc(N)nc(CSCC(=O)NN)n2)cc1 | 98.9
* COc1ccc(OC)c2c1[nH]c(=O)c1c3ncccc3cn21 | 41.4
* COc1ccc(CN2C(=O)C(Cl)=C(Nc3cccc(C(F)(F)F)c3)C2=O)cc1 | 46.6
* Cc1c(O)cc(-c2cnc(N/N=C\c3ccc(Cl)cc3)s2)c(O)c1C | 95.4
* CCN1C(=O)N(CC)C2Nn3c(s/c(=C4\C(=O)N(C)c5ccccc54)c3=O)=NC21 (configuration not stated) | 43.6
* COc1ccc(-c2nc3sccn3c2-c2cc(-c3cc(OC)c(OC)c(OC)c3)on2)cc1 | 80.9
* COC(=O)/C=C1\S/C(=N\NS(=O)(=O)c2ccc(C)cc2)N(c2ccccc2)C1=O | 109
* N/C(=N/N=C/c1ccccc1)N/N=C\c1ccccc1 | 76.3
* Cc1ccc(NCCN(C)C)c2c(=O)c3ccccc3sc12 | 24.3
* Cn1c(-c2c(N)n(Cc3cccnc3)c3nc(C#N)c(C#N)nc23)nc2ccccc21 | 89.2
* COc1cccc(-c2nc3sccn3c2-c2ccnc(NCCNS(=O)(=O)c3cccc(Cl)c3)c2)c1 | 68.3
* COc1ccc(NC(=O)CSc2nc(C)c(C(C)=O)n2-c2ccc(Cl)cc2)cc1 | 59.7

###

System: SK-MEL-2 melanoma
Assay: NCI-60 one-dose screen, 48 h (100 = growth as untreated, 0 = no growth, -100 = all killed)
Conditions: 10 µM unless noted
About 83,000 compounds went through this panel and 20% of them were active in at least one assay; those are over-represented in the sample as a whole.
quantity: growth (%)

* Clc1cccc(Cl)c1C(Nc1nc2ccccc2s1)Nc1nc2ccccc2s1 | 76
* COc1cc(/C=C/C(=O)c2c(C)nc3ccccc3c2/C=C/c2ccc(C)cc2)cc(OC)c1OC | 39.7
* COc1ccc(C2=NN(C(=O)c3cc(OC)c(OC)c(OC)c3)C(c3ccc(Cl)cc3)C2)cc1OC (stereo not given) | 39.5
* CC(=O)OC[C@H]1OC(Sc2sc(C(=O)c3ccc(Br)cc3)c(N)c2-c2nc3ccccc3s2)[C@H](OC(C)=O)[C@@H](OC(C)=O)[C@@H]1OC(C)=O (stereo not given in full) | 107
* COc1cc(/C=C/C(=O)c2c(C)nc3ccccc3c2C)ccc1OCCCN1CCN(C(=O)c2ccco2)CC1 | 59.3
* COc1cccc(-c2nn(-c3ccccc3)cc2-c2ccnc(NCCCNC(=O)c3ccc(F)cc3)c2)c1 | 51.6
* Cn1c2c(c3ccc(Cl)c(Cl)c31)C(C#N)C1(CCNCC1)NC2=O (stereo not given) | 11.5
* COc1ccc(NC(=O)c2nc(-c3cc(OC)c(OC)c(OC)c3)n(-c3cccc4ccccc34)n2)cc1OC | 43.7
* OC(COc1ccccc1Cl)COc1ccccc1Cl | 107
* CN(C)CCNc1nc2ccccc2c2c1c1c(n2Cc2ccccc2)-c2ccccc2C1=O | -74.6
* CCN(CC)CCN1C(=O)c2c(c(C)c3c(oc4cc(O)ccc43)c2C)C1=O | 108
* O=c1[nH][n+](-c2ccc(Cl)cc2)no1 | 75.4
* c1ccc2c(c1)nc(CN1CCOCC1)n1cc(N3CCCC3)nc21 | 106
* CCCCCCCCCCCC(c1ccccc1)[N+](C)(C)C (stereo not given) | -19.8
* C[C@@H]1N=C(c2ccc3ccccc3n2)Nc2nc3ccccn3c2C1=O | 109
* C=C(C)[C@@H]1CC[C@]2(C(=O)NC3CCCCC3)CC[C@]3(C)[C@H](CC[C@@H]4[C@@]5(C)CCC(=O)C(C)(C)[C@@H]5CC[C@]43C)[C@@H]12 | 95
* O=c1oc2ccccc2c(Cl)c1Cl | 54.7
* COC(=O)/C=C1\S/C(=N\NS(=O)(=O)c2ccc(C)cc2)N(c2ccccc2)C1=O | 107
* COc1cc(C2CC(=O)Nc3c2c(C)nn3-c2nc3ccccc3[nH]2)cc2c1OCC(=O)N2 (stereo not given) | 68.1
* COc1cccc(-c2nn(-c3ccccc3)cc2-c2ccnc(NCCCNC(=O)c3cccc(C(F)(F)F)c3)c2)c1 | 33.4

All figures here come from PubChem BioAssay (NCI).
